# Tested on: 186277-243-T-J2-PDC complex spheroids, viability;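 also: spheroids exposed to compounds for 7 days before viability read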
# ASSAY: Anticancer human tumor 186277-243-T-J2-PDC patient-derived colon adenocarcinoma cell line growth inhibition [RAS]
# CONDITION PARAMETERS: curve of first compound; second compound 0.0949 µM
RECORDED ENDPOINT: IC50

Please report IC50 with 186277-243-T-J2-PDC complex spheroids, viability for item C=CC(=O)Nc1cc(Nc2nccc(-c3cn(C)c4ccccc34)n2)c(OC)cc1N(C)CCN(C)C + CCn1c(-c2cccnc2C(C)OC)c2c3cc(ccc31)N1CCOC(CC(NC(=O)C(C(C)C)N(C)C(=O)C3(F)CCN(C(=O)C#CC(C)(C)N(C)C)CC3)C(=O)N3CCCC(N3)C(=O)OCC(C)(C)C2)C1 .
> 1 µM

Next:
Please report IC50 with 186277-243-T-J2-PDC complex spheroids, viability for item Cc1nc(N2CCC3(CC2)COC(C)C3N)c(CO)nc1Sc1ccnc(N)c1Cl (stereo not given) + CCn1c(-c2cc(N3CCN(C)CC3)cnc2C(C)OC)c2c3cc(ccc31)-c1csc(n1)CC(NC(=O)C1CC1C)C(=O)N1CCCC(N1)C(=O)OCC(C)(C)C2 .
< 0.0316 µM

Please report IC50 with 186277-243-T-J2-PDC complex spheroids, viability for item C=CC(=O)N1CCN(c2nc(OCC3CCCN3C)nc3c(F)c(-c4nc(N)cc(C)c4C(F)(F)F)c(Cl)cc23)C(C)C1 (stereo not given) + CCn1c(-c2cc(N3CCN(C)CC3)cnc2C(C)OC)c2c3cc(ccc31)-c1csc(n1)CC(NC(=O)C1CC1C)C(=O)N1CCCC(N1)C(=O)OCC(C)(C)C2 .
< 0.00316 µM

Please report IC50 with 186277-243-T-J2-PDC complex spheroids, viability for item C[C@@H](NC(=O)c1ncnc(N)c1Cl)c1ncc(C(=O)Nc2cc(C(F)(F)F)c(Cl)cn2)s1 + CCn1c(-c2cc(N3CCN(C)CC3)cnc2C(C)OC)c2c3cc(ccc31)-c1csc(n1)CC(NC(=O)C1CC1C)C(=O)N1CCCC(N1)C(=O)OCC(C)(C)C2 .
< 0.0316 µM

Please report IC50 with 186277-243-T-J2-PDC complex spheroids, viability for item CCN1CCN(Cc2ccc(Nc3ncc(F)c(-c4cc(F)c5nc(C)n(C(C)C)c5c4)n3)nc2)CC1 + CCn1c(-c2cc(N3CCN(C)CC3)cnc2C(C)OC)c2c3cc(ccc31)-c1csc(n1)CC(NC(=O)C1CC1C)C(=O)N1CCCC(N1)C(=O)OCC(C)(C)C2 .
< 0.00316 µM

Please report IC50 with 186277-243-T-J2-PDC complex spheroids, viability for item C=CC(=O)N1CCN(c2nc(OCC3CCCN3C)nc3c(F)c(-c4nc(N)cc(C)c4C(F)(F)F)c(Cl)cc23)C(C)C1 (stereo not given) + CCn1c(-c2cccnc2C(C)OC)c2c3cc(ccc31)N1CCOC(CC(NC(=O)C(C(C)C)N(C)C(=O)C3(F)CCN(C(=O)C#CC(C)(C)N(C)C)CC3)C(=O)N3CCCC(N3)C(=O)OCC(C)(C)C2)C1 .
> 1 µM

Please report IC50 with 186277-243-T-J2-PDC complex spheroids, viability for item CC(C)NCC(C(=O)N1CCN(c2ncnc3c2C(C)CC3O)CC1)c1ccc(Cl)cc1 (stereo not given) + CCn1c(-c2cc(N3CCN(C)CC3)cnc2C(C)OC)c2c3cc(ccc31)-c1csc(n1)CC(NC(=O)C1CC1C)C(=O)N1CCCC(N1)C(=O)OCC(C)(C)C2 .
< 0.0316 µM

Please report IC50 with 186277-243-T-J2-PDC complex spheroids, viability for item Nc1ccn(C2OC(CO)C(O)C2(F)F)c(=O)n1 (stereo not given) + CCn1c(-c2cccnc2C(C)OC)c2c3cc(ccc31)N1CCOC(CC(NC(=O)C(C(C)C)N(C)C(=O)C3(F)CCN(C(=O)C#CC(C)(C)N(C)C)CC3)C(=O)N3CCCC(N3)C(=O)OCC(C)(C)C2)C1 .
< 0.00316 µM

Please report IC50 with 186277-243-T-J2-PDC complex spheroids, viability for item CC1(O)CCCC1n1c(=O)c(C(F)F)cc2cnc(NC3CCN(S(C)(=O)=O)CC3)nc21 (stereo not given) + CCn1c(-c2cc(N3CCN(C)CC3)cnc2C(C)OC)c2c3cc(ccc31)-c1csc(n1)CC(NC(=O)C1CC1C)C(=O)N1CCCC(N1)C(=O)OCC(C)(C)C2 .
< 0.0316 µM

Please report IC50 with 186277-243-T-J2-PDC complex spheroids, viability for item CCc1c2c(nc3ccc(O)cc13)-c1cc3c(c(=O)n1C2)COC(=O)[C@]3(O)CC + CCn1c(-c2cc(N3CCN(C)CC3)cnc2C(C)OC)c2c3cc(ccc31)-c1csc(n1)CC(NC(=O)C1CC1C)C(=O)N1CCCC(N1)C(=O)OCC(C)(C)C2 .
< 0.000949 µM
